- System: S. pyogenes 3565

>  <SMILES_NOTATION>
CC[C@@H]1OC(=O)[C@H](C)[C@H](O[C@@H]2C[C@](C)(OC)[C@H](OC(=O)CCNCCCc3ccc4c(c3)c(=O)c(C(=O)O)cn4CC)[C@H](C)O2)[C@@H](C)[C@H](O[C@@H]2O[C@H](C)C[C@H](N(C)C)[C@@H]2O)[C@](C)(O)C[C@H](C)CN(C)[C@@H](C)[C@H]2OC(=O)O[C@@]12C

>  <MIC>
≤ 1 µg/mL

$$$$

###

- System: S. pyogenes 3565
Counter-ions that a name gives are not always drawn.

>  <COMPOUND>
CC[C@H]1OC(=O)[C@H](C)[C@@H](O[C@H]2C[C@@](C)(OC)[C@@H](OC(=O)CCNCCCc3cc4c(cc3F)c(=O)c(C(=O)O)cn4CC)[C@H](C)O2)[C@H](C)[C@@H](O[C@@H]2O[C@H](C)C[C@H](N(C)C)[C@H]2O)[C@](C)(OC)C[C@@H](C)C(=O)[C@H](C)[C@@H](O)[C@]1(C)O

>  <SYSTEM_NAME>
S. pyogenes 3565

>  <MIC>
≤ 1 µg/mL

$$$$
>  <COMPOUND>
CC[C@@H]1OC(=O)[C@H](C)[C@H](O[C@@H]2C[C@](C)(OC)[C@H](OC(=O)CCNCCCc3cc4c(cc3F)c(=O)c(C(=O)O)cn4CC)[C@H](C)O2)[C@@H](C)[C@H](O[C@@H]2O[C@H](C)C[C@H](N(C)C)[C@@H]2O)[C@](C)(O)C[C@H](C)CN(C)[C@H](C)[C@@H](O)[C@]1(C)O [Example 2, tris trifluoroacetate salt]

>  <SYSTEM_NAME>
S. pyogenes 3565

>  <MIC>
≤ 1 µg/mL

$$$$
>  <COMPOUND>
CC[C@@H]1OC(=O)[C@H](C)[C@H](O[C@@H]2C[C@](C)(OC)[C@H](OC(=O)CCNCCCc3ccc4c(c3)c(=O)c(C(=O)OC)cn4CC)[C@H](C)O2)[C@@H](C)[C@H](O[C@@H]2O[C@H](C)C[C@H](N(C)C)[C@@H]2O)[C@](C)(OC)C[C@H](C)C(=O)[C@@H](C)[C@H]2NC(=O)O[C@@]12C [Example 8, diformate salt]

>  <SYSTEM_NAME>
S. pyogenes 3565

>  <MIC>
≤ 1 µg/mL

$$$$
